- TARGET_ENTITY: T1, HLA-DR4 on antigen presenting cells (L cells transfected with DR4; Priess cells DRB1*0401/DRB4*0101) (human)
- T1 chain 1: not shown
- T1 chain 2: not shown
- PROTOCOL_TEXT: cell-based or functional assay
Entries and their inhibition of the DR4-restricted 3838 T cell clone (IL-2 secretion)

These solved cases illustrate the format of a correct answer.
Per the records, this binder ( AEKAYAAAAAAAAAA (modifications not checked) [peptide SEQ ID NO: 33] ) has inhibition of the DR4-restricted 3838 T cell clone (IL-2 secretion) equal to > 80%

Per the records, this binder ( EAAYAAAAAAKAAAA (modifications not checked) [peptide SEQ ID NO: 16] ) has inhibition of the DR4-restricted 3838 T cell clone (IL-2 secretion) equal to > 80%

inhibition of the DR4-restricted 3838 T cell clone (IL-2 secretion) for EKKYAAAAAAKAAAA (modifications not checked) [peptide SEQ ID NO: 17] is > 80%

# inhibition of the DR4-restricted 3838 T cell clone (IL-2 secretion) (binder: AAKYEAAAAAAAAAA (modifications not checked) [peptide SEQ ID NO: 28] ) is > 80%

Entry AEKYAAAAAAKAAAA (modifications not checked) [peptide SEQ ID NO: 6] — recorded inhibition of the DR4-restricted 3838 T cell clone (IL-2 secretion) = > 80%

Okay, next one:
Lab note: AEEYAAAAAAKAAAA (modifications not checked) [peptide SEQ ID NO: 11] gave inhibition of the DR4-restricted 3838 T cell clone (IL-2 secretion) of > 80%
